Assay: Biodistribution of radiotracers in normal mice
Format: in vivo, mouse
Details: normal male mice, 30 min
reported.metric: Biodistribution: Liver (% dose/g)
Give bare numbers, in % dose/g.

Reference set (5 entries):
# molecule, observed.measurement
rows = [
    ("O=C(O)CC[C@H](NC(=O)N[C@@H](CCCCNC(=O)CCCCCNC(=O)CCc1ccc2c(n1)C[N+]13CC[N+]45CC(=O)[O][68Ga-3]14([O]C(=O)C3)([O]2)[O]c1ccc(CCC(=O)NCCCCCC(=O)NCCCC[C@H](NC(=O)N[C@@H](CCC(=O)O)C(=O)O)C(=O)O)nc1C5)C(=O)O)C(=O)O (stereo partly drawn) [[^68Ga]3]", 1.71),
    ("O=C(O)CCc1ccc2c(c1)C[N+]13CC[N+]45CC(=O)[O][68Ga-3]14([O]C(=O)C3)([O]2)[O]c1ccc(CCC(=O)NCC(=O)N[C@@H](Cc2ccc(OCC(=O)N[C@@H](Cc3ccccc3)C(=O)NCCCC[C@H](NC(=O)N[C@@H](CCC(=O)O)C(=O)O)C(=O)O)cc2)C(=O)O)cc1C5 (stereo partly drawn) [[^68Ga]5b]", 0.95),
    ("O=C(O)CCc1ccc2c(n1)C[N+]13CC[N+]45CC(=O)[O][68Ga-3]14([O]C(=O)C3)([O]2)[O]c1ccc(CCC(=O)NCCCCCC(=O)NCCCC[C@H](NC(=O)N[C@@H](CCC(=O)O)C(=O)O)C(=O)O)nc1C5 (stereo partly drawn) [[^68Ga]2]", 0.33),
    ("O=C(O)CCc1ccc2c(c1)C[N+]13CC[N+]45CC(=O)[O][68Ga-3]14([O]C(=O)C3)([O]2)[O]c1ccc(CCC(=O)NCCCCCC(=O)NCCCC[C@H](NC(=O)N[C@@H](CCC(=O)O)C(=O)O)C(=O)O)cc1C5 (stereo partly drawn) [[^68Ga]1a, reference compound]", 0.35),
    ("O=C(O)CCc1ccc(O)c(CN(CCN(CC(=O)O)Cc2cc(CCC(=O)NCCCCCC(=O)NCCCC[C@H](NC(=O)N[C@@H](CCC(=O)O)C(=O)O)C(=O)O)ccc2O)CC(=O)O)n1 [[^68Ga]4a, metal not drawn]", 0.39),
]

Here is another molecule to look at.
Problem: Biodistribution: Liver lookup needed for O=C(O)CC[C@H](NC(=O)N[C@@H](CCCCNC(=O)CCCCCNC(=O)CCc1ccc2c(c1)C[N+]13CC[N+]45CC(=O)[O][68Ga-3]14([O]C(=O)C3)([O]2)[O]c1ccc(CCC(=O)NCCNC(=O)CN2CCN(CC(=O)O)CCN(CC(=O)O)CCN(CC(=O)O)CC2)cc1C5)C(=O)O)C(=O)O (stereo partly drawn) [[^68Ga]1g] , thanks.
Solution: 0.47

###

Assay: Biodistribution of radiotracers in normal mice
Assay type: in vivo, mouse
Conditions: normal male mice, 2 min
Procedure: Normal CD-1 male mice were injected via the tail vein with 35 μCi of [^68Ga] radiotracers (0.2 nmole of ligand). […] All organs were removed and blood was also collected. Each organ was weighed, and the tissue radioactivity was measured with an automated gamma counter (Wizard, Perkin Elmer). The % ID/g was calculated by comparison with samples of a standard dilution of the initial dose. All measurements were corrected for decay.
Please respond with reported Biodistribution: Muscle for every item in the list.
Answers are plain numbers, in % dose/g.

Past entries and their recorded results:
# molecule, observed.measurement
data = [
    ("O=C(O)CC[C@H](NC(=O)N[C@@H](CCCCNC(=O)CCCCCNC(=O)CCc1ccc2c(c1)C[N+]13CC[N+]45CC(=O)[O][68Ga-3]14([O]C(=O)C3)([O]2)[O]c1ccc(CCC(=O)N[C@@H](CC(=O)O)C(=O)O)cc1C5)C(=O)O)C(=O)O (stereo partly shown) [[^68Ga]1e]", 2.01),
    ("O=C(O)CCc1ccc2c(c1)C[N+]13CC[N+]45CC(=O)[O][68Ga-3]14([O]C(=O)C3)([O]2)[O]c1ccc(CCC(=O)NCC(=O)N[C@@H](Cc2ccc(OCC(=O)N[C@@H](Cc3ccccc3)C(=O)NCCCC[C@H](NC(=O)N[C@@H](CCC(=O)O)C(=O)O)C(=O)O)cc2)C(=O)O)cc1C5 (stereo partly shown) [[^68Ga]5b]", 1.97),
    ("O=C(O)CC[C@H](NC(=O)N[C@@H](CCCCNC(=O)CCCCCNC(=O)CCc1ccc2c(c1)C[N+]13CC[N+]45CC(=O)[O][68Ga-3]14([O]C(=O)C3)([O]2)[O]c1ccc(CCC(=O)NCCNC(=O)CN2CCN(CC(=O)O)CCN(CC(=O)O)CCN(CC(=O)O)CC2)cc1C5)C(=O)O)C(=O)O (stereo partly shown) [[^68Ga]1g]", 1.72),
    ("O=C(O)CC[C@H](NC(=O)CCc1ccc2c(c1)C[N+]13CC[N+]45CC(=O)[O][68Ga-3]41([O]C(=O)C3)([O]c1ccc(CCC(=O)NCCCCCC(=O)NCCCC[C@H](NC(=O)N[C@@H](CCC(=O)O)C(=O)O)C(=O)O)cc1C5)[O]2)C(=O)O (stereo partly shown) [[^68Ga]1f]", 1.81),
    ("C[C@H](NC(=O)CCc1ccc2c(c1)C[N+]13CC[N+]45CC(=O)[O][68Ga-3]41([O]C(=O)C3)([O]c1ccc(CCC(=O)NCCCCCC(=O)NCCCC[C@H](NC(=O)N[C@@H](CCC(=O)O)C(=O)O)C(=O)O)cc1C5)[O]2)C(=O)O (stereo partly shown) [[^68Ga]1d]", 1.96),
]

Can you give me Biodistribution: Muscle for all of these, one by one?
1. O=C(O)CC[C@H](NC(=O)N[C@@H](CCCCNC(=O)CCCCCNC(=O)CCc1ccc2c(n1)C[N+]13CC[N+]45CC(=O)[O][68Ga-3]14([O]C(=O)C3)([O]2)[O]c1ccc(CCC(=O)NCCCCCC(=O)NCCCC[C@H](NC(=O)N[C@@H](CCC(=O)O)C(=O)O)C(=O)O)nc1C5)C(=O)O)C(=O)O (stereo partly shown) [[^68Ga]3]
2. O=C(O)CCc1ccc2c(c1)C[N+]13CC[N+]45CC(=O)[O][68Ga-3]14([O]C(=O)C3)([O]2)[O]c1ccc(CCC(=O)NCCCCCC(=O)NCCCC[C@H](NC(=O)N[C@@H](CCC(=O)O)C(=O)O)C(=O)O)cc1C5 (stereo partly shown) [[^68Ga]1a, reference compound]

Solution:
1. 2.02
2. 1.68

###

What Biodistribution: Liver was measured for each of the following?
Assay: Biodistribution of radiotracers in normal mice
Type: in vivo, mouse
Conditions: normal male mice, 60 min
One number for each entry, in % dose/g.

# molecule, observed.measurement
data = [
    ("O=C(O)CCc1ccc2c(n1)C[N+]13CC[N+]45CC(=O)[O][68Ga-3]14([O]C(=O)C3)([O]2)[O]c1ccc(CCC(=O)NCCCCCC(=O)NCCCC[C@H](NC(=O)N[C@@H](CCC(=O)O)C(=O)O)C(=O)O)nc1C5 (some centres unmarked) [[^68Ga]2]", 0.25),
]

Problem: Report Biodistribution: Liver for O=C(O)CCc1ccc2c(c1)C[N+]13CC[N+]45CC(=O)[O][68Ga-3]14([O]C(=O)C3)([O]2)[O]c1ccc(CCC(=O)NCC(=O)N[C@@H](Cc2ccc(OCC(=O)N[C@@H](Cc3ccccc3)C(=O)NCCCC[C@H](NC(=O)N[C@@H](CCC(=O)O)C(=O)O)C(=O)O)cc2)C(=O)O)cc1C5 (some centres unmarked) [[^68Ga]5b] please.
Solution: 0.54

###

Provide the reported Biodistribution: Spleen of each item.
Test: Biodistribution of radiotracers in normal mice
Type: in vivo, mouse
Conditions: normal male mice, 60 min

Study these solved cases before continuing.
# compound, observed.measurement
measured = [
    ("O=C(O)CC[C@H](NC(=O)N[C@@H](CCCCNC(=O)CCCCCNC(=O)CCc1ccc2c(c1)C[N+]13CC[N+]45CC(=O)[O][68Ga-3]14([O]C(=O)C3)([O]2)[O]c1ccc(CCC(=O)N[C@@H](CC(=O)O)C(=O)O)cc1C5)C(=O)O)C(=O)O (stereo partly shown) [[^68Ga]1e]", "3.03 ± 0.90 % dose/g"),
    ("O=C(O)CC[C@H](NC(=O)N[C@@H](CCCCNC(=O)CCCCCNC(=O)CCc1ccc2c(n1)C[N+]13CC[N+]45CC(=O)[O][68Ga-3]14([O]C(=O)C3)([O]2)[O]c1ccc(CCC(=O)NCCCCCC(=O)NCCCC[C@H](NC(=O)N[C@@H](CCC(=O)O)C(=O)O)C(=O)O)nc1C5)C(=O)O)C(=O)O (stereo partly shown) [[^68Ga]3]", "1.75 ± 0.17 % dose/g"),
    ("O=C(O)CCc1ccc2c(c1)C[N+]13CC[N+]45CC(=O)[O][68Ga-3]14([O]C(=O)C3)([O]2)[O]c1ccc(CCC(=O)NCC(=O)N[C@@H](Cc2ccc(OCC(=O)N[C@@H](Cc3ccccc3)C(=O)NCCCC[C@H](NC(=O)N[C@@H](CCC(=O)O)C(=O)O)C(=O)O)cc2)C(=O)O)cc1C5 (stereo partly shown) [[^68Ga]5b]", "1.71 ± 0.66 % dose/g"),
]

Problem: Consider the compound shown here: O=C(O)CC[C@H](NC(=O)N[C@@H](CCCCNC(=O)CCCCCNC(=O)CCc1ccc2c(c1)C[N+]13CC[N+]45CC(=O)[O][68Ga-3]14([O]C(=O)C3)([O]2)[O]c1ccc(CCC(=O)NCC(=O)O)cc1C5)C(=O)O)C(=O)O (stereo partly shown) [[^68Ga]1c] What is its recorded Biodistribution: Spleen?
Solution: 1.63 ± 0.20 % dose/g
